Where do these numbers come from? They come from patent US9980943B2.

# CMV-LACZ in Myoblasts, value relative to DMSO listing for each entry below
tested on: β-galactosidase in CMV-LacZ C2C12 myoblasts; assay: CMV-LacZ secondary screen in C2C12 myoblasts (β-Gal stabilizing assay); format: cell-based, mouse; conditions: 10 uM; SU9516 analogs, C2C12 CMV-LacZ, N=2

Here's what some known entries look like.
O=C1Nc2ccccc2/C1=C/c1ccc([N+](=O)[O-])cc1 | 1.0363
N#C/C(=C1/C(=O)Nc2ccc(Br)cc21)c1ccccn1 | 0.6673
Cc1ccc2c(c1)/C(=C/c1ccccc1C)C(=O)N2 | 0.7598
Cc1ccc(/C=C2\C(=O)Nc3ccccc32)o1 | 1.0968
O=C1C(c2c(O)[nH]c3ccccc23)=Nc2ccccc21 | 1.6628

Find the measured CMV-LACZ in Myoblasts, value relative to DMSO of `NC(=O)COc1ccc(C(=O)/C=C2/C(=O)Nc3ccccc32)cc1` and report it. 1.1047

Please indicate CMV-LACZ in Myoblasts, value relative to DMSO recorded for `Cc1ccc2c(c1)/C(=C/c1ccccc1F)C(=O)N2` 0.9082

Please list CMV-LACZ in Myoblasts, value relative to DMSO recorded for the compound `CCOc1cc2c3c(c1)C(C)=CC(C)(C)N3C(=O)C2=O` 0.8509

###

system: β-galactosidase in CMV-LacZ C2C12 myoblasts; assay: CMV-LacZ secondary screen in C2C12 myoblasts (β-Gal stabilizing assay); assay type: cell-based, mouse; settings: 10 uM; CMV-LacZ C2C12 myoblasts
Assay endpoint: CMV-LACZ in Myoblasts (β-galactosidase activity relative to DMSO)
Returns: the value as a bare number; no unit string appended.

CCOc1ccccc1Nc1cc2n(c(=O)n1)CCc1cc(OC)c(OC)cc1-2 [MLS001215294-01] | 1.3412

In one line, give reported CMV-LACZ in Myoblasts (β-galactosidase activity relative to DMSO) of the entry COc1ccc(NC(=O)C2(N(C(=O)Cn3nnnc3N)c3ccc(OC)cc3)CCCCC2)cc1 [MLS001030268-01] . 1.1787

Give recorded CMV-LACZ in Myoblasts (β-galactosidase activity relative to DMSO). O=C1CCC(C(=O)N2CCSCC2)CN1Cc1ccc(Cl)cc1 (stereo not shown) [MLS001090787-01] 0.8594

###

tested on: β-galactosidase in CMV-LacZ C2C12 myotubes; test: CMV-LacZ secondary screen in C2C12 myotubes (β-Gal stabilizing assay); format: cell-based, mouse; settings: 20 uM; C2C12 CMV-LacZ myotubes; fold relative to DMSO
Response key: true (1) means CMV-LACZ in Myotubes, signal relative to DMSO >= 1; false (0) means CMV-LACZ in Myotubes, signal relative to DMSO < 1.

Record excerpt, results attached:
CCCOc1nc(SCCC)nc2c1cnn2-c1ccccc1 [MLS000737953-01] | false (0)
COc1ccc(CN2CCNC(=O)C2CC(=O)NCCc2c[nH]c3ccccc23)c(OC)c1 (stereo not drawn) [MLS000734270-01] | true (1)
CCc1nnc(NC(=O)c2ccc(S(=O)(=O)NCC(C)C)cc2)s1 [MLS000027478-01] | false (0)
CN(CCC1CCCCO1)C(=O)CCc1nnc(CCCCc2ccccc2)o1 (stereo not drawn) [MLS000735021-01] | true (1)
COC(=O)Cn1c(=O)c2c(nc3n2CC(C)CN3Cc2ccccc2)n(C)c1=O (stereo not drawn) [MLS001166758-01] | true (1)
CC(=O)Nc1ccc(-n2c(C)nc(=O)c(-c3ccccc3)c2C)cc1 [MLS000078709-01] | true (1)
CCOC(=O)c1cc(-c2cccs2)nc2c1c(C)nn2-c1ccccn1 [MLS001006516-01] | false (0)

Let us examine a further case.
Is it the case that Cl.O=C1C2CCCN2C(=O)N1CCCN1CCN(c2cccc(Br)c2)CC1 (stereo not drawn) [MLS001180929-01] has CMV-LACZ in Myotubes, signal relative to DMSO reaching or exceeding 1? true (1)
